Each entry below carries its recorded pEC50.
# System: HCC95
# assay text: Cytotoxicity against human HCC95 cells overexpressing DCN1 assessed as cell growth inhibition after 72 hrs by Celltiter-Glo assay
# Type: cell-based
# measurement parameters: HCC95, 72 h
pEC50: −log10 of the molar value.
measure: pEC50

>>> assay_value("CCCN1C(=O)[C@@H](NC(=O)c2cccc(C)c2)[C@@H](c2ccc(F)cc2)c2c1nn(CCC)c2C")
"< 4.60"
>>> assay_value("CCOC1=Nc2c(c(C)nn2-c2ccccc2)[C@H](c2ccc(F)cc2)[C@@H]1NC(=O)c1cccc(C)c1")
"< 4.60"
>>> assay_value("Cc1cccc(C(=O)N[C@H]2C(=O)Nc3c(c(C)nn3-c3ccccc3)[C@@H]2c2ccc(F)cc2)c1 (racemic)")
"< 4.60"

---

# target: DCN1-like protein 1/NEDD8-conjugating enzyme Ubc12 (Homo sapiens, UniProt Q96GG9)
# Sequence (Q96GG9 whole entry): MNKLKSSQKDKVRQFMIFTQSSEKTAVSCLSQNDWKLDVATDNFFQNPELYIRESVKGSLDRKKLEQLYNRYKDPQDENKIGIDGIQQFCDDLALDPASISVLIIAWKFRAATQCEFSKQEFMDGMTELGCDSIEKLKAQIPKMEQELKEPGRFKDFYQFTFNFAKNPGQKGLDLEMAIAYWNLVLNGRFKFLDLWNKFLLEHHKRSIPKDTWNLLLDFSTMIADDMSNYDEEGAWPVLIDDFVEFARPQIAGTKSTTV
# Sequence (P61081 whole entry, further chain): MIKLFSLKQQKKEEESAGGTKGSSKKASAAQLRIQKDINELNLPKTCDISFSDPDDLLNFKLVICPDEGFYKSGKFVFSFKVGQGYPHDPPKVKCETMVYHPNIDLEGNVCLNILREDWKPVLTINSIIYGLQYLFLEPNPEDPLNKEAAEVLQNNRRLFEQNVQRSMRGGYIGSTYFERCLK
# assay text: Inhibition of biotinylated DCN1 (unknown origin) - AlexaFluor488 labelled UBE2M (unknown origin) protein-protein interaction after 1 hr by TR-FRET assay
pIC50: −log10 of the molar value.
measure: pIC50

>>> assay_value("CCCn1nc(C)c2c1NC(=O)[C@@H](NC(=O)c1cccc(C)c1)[C@H]2c1ccc(F)cc1")
5.92
>>> assay_value("Cc1cccc(C(=O)N[C@@H]2C(=O)Nc3c(c(C)nn3-c3ccccc3)[C@@H]2c2ccc(F)nc2)c1")
5.46
>>> assay_value("Cc1cccc(C(=O)N[C@@H]2C(=O)N(C)c3c(c(C)nn3C(C)(C)C)[C@@H]2c2ccc(F)cc2)c1")
5.64
>>> assay_value("CCN1C(=O)[C@@H](NC(=O)c2cccc(C)c2)[C@@H](c2ccc(F)cc2)c2c(C)nn(C3CCCC3)c21")
6.10
>>> assay_value("Cc1cccc(C(=O)N[C@@H]2C(=O)Nc3c(c(C)nn3-c3ccccc3)[C@@H]2c2cccc(F)c2)c1")
5.15
>>> assay_value("CC(=O)N1C(=O)[C@@H](NC(=O)c2cccc(C)c2)[C@@H](c2ccc(F)cc2)c2c(C)nn(-c3ccccc3)c21")
5.25
>>> assay_value("Cc1cccc(C(=O)N[C@@H]2C(=O)Nc3c(c(C)nn3C3CC3)[C@@H]2c2ccc(F)cc2)c1")
5.70
>>> assay_value("CCC[C@H]1c2c(C)nn(-c3ccccc3)c2NC(=O)[C@H]1NC(=O)c1cccc(C)c1")
5.51
>>> assay_value("CCC(C)n1nc(C)c2c1NC(=O)[C@@H](NC(=O)c1cccc(C)c1)[C@H]2c1ccc(F)cc1 (stereo in doubt; 22b)")
6.22
>>> assay_value("CCCn1nc(C)c2c1N(CC)C(=O)[C@@H](NC(=O)c1cccc(C)c1)[C@H]2c1ccc(F)cc1 (racemic)")
6.70
>>> assay_value("Cc1ccc([C@H]2c3c(C)nn(-c4ccccc4)c3NC(=O)[C@H]2NC(=O)c2cccc(C)c2)cc1 (relative stereo)")
5.29
